Assay: Lymphocyte viability / cytotoxicity assay (LcV), MTT
Format: cell-based, murine
Conditions: mouse, lymphocytes; LcV; read-out: cytotoxicity IC50
reported-property: CC50 at 4 h

Problem: Given C=C1COC(O)(C2OCOC(C3CC(=O)NC(=O)C3)C2O)C1C (single isomer, unassigned) [Sesbanimide] , state its recorded CC50 at 4 h.
Result: 0.417 to 3.6 µg/mL
